Where do these numbers come from? They come from PubChem BioAssay (NCATS).

assayed_system: Calcium and integrin-binding protein 1 (Homo sapiens)
protocol_notes: Confirmatory qHTS for Identification of Calcium Integrin Binding Protein 1 (CIB1) Competitor (AID 1508617); note: nearly all actives have a fitted effect of over 65% in size
recorded_conditions: CIB1 binding competition assay, biochemical qHTS; series mostly up to 114 µM
Results filed as inconclusive are left out. The source made the active and inactive calls. Calls come from the whole dose curve; as a rule, active = well fitted inhibition curve with a large enough effect; inconclusive = small, poorly fitted or top-dose-only effect; inactive = no such curve, though single readings can be large or run the other way.
Pick one: 1 (active), -1 (inactive)

## Input What did the test return for Nc1cc(C(F)(F)F)ccc1S ?
## Output 1

## Input What did the test return for CN1CCC(N(Cc2cccs2)c2ccccc2)CC1 ?
## Output -1

## Input What did the test return for COC(=O)c1cc(Cl)ccc1NS(=O)(=O)C(F)(F)F ?
## Output -1

## Input What did the test return for O=[N+]([O-])c1ccc(O)c2ncccc12 ?
## Output -1

## Input What did the test return for O=C(Nc1ccc(S(=O)(=O)N2CCOCC2)cc1)c1cc(Cl)ccc1NS(=O)(=O)c1ccc(Cl)s1 ?
## Output -1

----------
protocol_notes: Primary qHTS for inhibitors of nuclear receptor binding SET domain protein 2 (NSD2) in an RCH-ACV wild type WT cells (2C) (AID 1645877); note: nearly all actives have a fitted effect of over 70% in size
recorded_conditions: RCH-ACV (leukaemia line) NSD2 WT (2C) viability, CellTiter-Glo, 72 h; series mostly up to 44.9 µM
Inconclusive results are not listed. Activity calls are given as the source filed them. Calls follow the shape of the dose curve; as a rule, active = well fitted inhibition curve with a large enough effect; inconclusive = small, poorly fitted or top-dose-only effect; inactive = no such curve, though single readings can be large or run the other way.
Pick one: TRUE for active, FALSE for inactive

## Input What did the test return for CCOc1ncc(F)c(=O)[nH]1 ?
## Output FALSE

## Input What did the test return for COc1ccc(CCC(C)=O)cc1 ?
## Output FALSE

## Input What did the test return for O=C1Nc2ccccc2C1(c1ccc(O)cc1)c1ccc(O)cc1 ?
## Output TRUE

## Input What did the test return for COCCc1ccc(OCC2CO2)cc1 (stereo not drawn) ?
## Output FALSE

## Input What did the test return for CN(C)CCOC(c1ccccc1)c1ccc(Br)cc1 (stereo not drawn) ?
## Output TRUE

## Input What did the test return for COCCOCC(OC)OC ?
## Output FALSE

## Input What did the test return for CCC(C(=O)NC(=O)NC(C)=O)c1ccccc1 (stereo not drawn) ?
## Output FALSE

## Input What did the test return for CC(C)NCCCC1(C(N)=O)c2ccccc2-c2ccccc21 ?
## Output FALSE

## Input What did the test return for CN(C)CCOC1=Cc2ccccc2Sc2ccc(Cl)cc21 ?
## Output TRUE

## Input What did the test return for Nc1c2ccccc2nc2ccccc12 ?
## Output TRUE

## Input What did the test return for CCCC(=O)O[C@]1(C(=O)CC)CC[C@H]2[C@@H]3CCC4=CC(=O)CC[C@]4(C)[C@H]3[C@@H](O)C[C@@]21C ?
## Output FALSE

## Input What did the test return for CC(NCCC(c1ccccc1)c1ccccc1)c1ccccc1 (stereo not drawn) ?
## Output TRUE

## Input What did the test return for C=CCOc1cc(Cl)ccc1C(=O)NCCN(CC)CC ?
## Output FALSE

----------
protocol_notes: qHTS of pediatric cancer cell lines to identify multiple opportunities for drug repurposing: Primary screen for TC32 cells (AID 1347089); note: nearly all actives have a fitted effect of over 60% in size
recorded_conditions: TC32 Ewing sarcoma viability, CellTiter-Glo luminescence, 48 h; series mostly up to 45.8 µM
Records with an inconclusive call do not appear. Activity calls are given as the source filed them. Calls come from the whole dose curve; as a rule, active = well fitted cell-killing curve with a large enough effect; inconclusive = small, poorly fitted or top-dose-only effect; inactive = flat fitted curve, though single readings scatter.
Pick one: active, inactive

## Input What did the test return for Cc1ncc(CO)c(CO)c1O ?
## Output inactive

## Input What did the test return for Cc1nc(N)nc(N)c1-c1ccc(Cl)c(Cl)c1 ?
## Output active

## Input What did the test return for CCCCOC(=O)CCCCCCCCC(=O)OCCCC ?
## Output inactive

## Input What did the test return for CCCCN(CCN(CCCC)C(=O)N1CCOCC1)C(=O)N1CCOCC1 ?
## Output inactive

## Input What did the test return for CN1CC[C@H](c2c(O)cc(O)c3c(=O)cc(-c4ccccc4Cl)oc23)[C@H](O)C1 ?
## Output active

## Input What did the test return for CC(C)(C)c1cc(C=O)cc(C(C)(C)C)c1O ?
## Output inactive
